Sourced from patent US20020177126A1

Target: F protein of wild type RSV A/Long (respiratory syncytial virus, strain …, UniProt P12568 26-574)
Sequence (P12568 26-574): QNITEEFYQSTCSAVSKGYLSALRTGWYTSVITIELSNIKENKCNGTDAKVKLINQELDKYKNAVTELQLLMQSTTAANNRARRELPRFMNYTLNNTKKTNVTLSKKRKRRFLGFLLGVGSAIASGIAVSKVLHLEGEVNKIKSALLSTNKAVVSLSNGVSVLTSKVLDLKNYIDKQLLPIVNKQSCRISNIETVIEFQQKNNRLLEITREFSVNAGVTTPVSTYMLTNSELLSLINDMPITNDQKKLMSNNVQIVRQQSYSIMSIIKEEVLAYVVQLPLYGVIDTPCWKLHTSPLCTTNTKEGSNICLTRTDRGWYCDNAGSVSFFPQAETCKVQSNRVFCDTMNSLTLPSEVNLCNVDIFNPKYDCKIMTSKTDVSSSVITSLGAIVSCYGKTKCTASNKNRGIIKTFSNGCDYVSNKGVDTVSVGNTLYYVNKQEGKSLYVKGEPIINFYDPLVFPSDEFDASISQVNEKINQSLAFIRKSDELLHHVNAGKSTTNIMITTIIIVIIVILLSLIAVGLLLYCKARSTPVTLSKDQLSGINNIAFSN
Experiment: cell-based or functional assay
1 if Fold Difference (Control IC50) is below 20 fold. 0 if not; exact matches included in 0.

Reference set (3 entries):
binder	class
A13c4 (monoclonal antibody) (antibody, V domains shown) VH: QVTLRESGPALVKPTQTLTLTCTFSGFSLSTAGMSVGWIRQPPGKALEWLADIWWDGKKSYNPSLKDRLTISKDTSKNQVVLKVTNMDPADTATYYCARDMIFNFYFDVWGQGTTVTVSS VL: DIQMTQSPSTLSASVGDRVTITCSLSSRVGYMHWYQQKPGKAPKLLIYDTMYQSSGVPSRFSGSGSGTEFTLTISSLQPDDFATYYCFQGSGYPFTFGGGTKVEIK	1
P12f4 (monoclonal antibody) (antibody, V domains shown) VH: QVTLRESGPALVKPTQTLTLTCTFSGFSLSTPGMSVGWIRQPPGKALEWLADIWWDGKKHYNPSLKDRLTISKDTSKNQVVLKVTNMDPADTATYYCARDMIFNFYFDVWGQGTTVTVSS VL: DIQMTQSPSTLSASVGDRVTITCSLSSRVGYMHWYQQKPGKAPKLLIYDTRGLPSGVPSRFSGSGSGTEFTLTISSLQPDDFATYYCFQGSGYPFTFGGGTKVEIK	0
A12a6 (monoclonal antibody) (antibody, V domains shown) VH: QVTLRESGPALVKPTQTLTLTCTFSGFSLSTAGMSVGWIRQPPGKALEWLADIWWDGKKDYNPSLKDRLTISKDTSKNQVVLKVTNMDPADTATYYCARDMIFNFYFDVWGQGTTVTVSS VL: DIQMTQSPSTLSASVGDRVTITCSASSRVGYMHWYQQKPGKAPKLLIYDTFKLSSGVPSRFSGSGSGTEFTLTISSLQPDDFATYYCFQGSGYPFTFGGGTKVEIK	1

Determine whether this binder shows Fold Difference (Control IC50) lower than 20 fold (ties excluded): A13c4 (Fab) (Fab, V domains shown) VH: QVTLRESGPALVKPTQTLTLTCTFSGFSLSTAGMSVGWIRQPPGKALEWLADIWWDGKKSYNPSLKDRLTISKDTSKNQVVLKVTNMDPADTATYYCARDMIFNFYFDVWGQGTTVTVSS VL: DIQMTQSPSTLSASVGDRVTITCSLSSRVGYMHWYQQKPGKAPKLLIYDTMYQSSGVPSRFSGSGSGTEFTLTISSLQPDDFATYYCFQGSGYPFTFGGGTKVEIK
0

Determine whether this binder shows Fold Difference (Control IC50) lower than 20 fold (ties excluded): P12f2 (monoclonal antibody) (antibody, V domains shown, also called Pf12; P1212) VH: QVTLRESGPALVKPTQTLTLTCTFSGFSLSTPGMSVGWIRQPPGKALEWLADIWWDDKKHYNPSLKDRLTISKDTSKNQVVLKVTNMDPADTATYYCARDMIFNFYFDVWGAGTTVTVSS VL: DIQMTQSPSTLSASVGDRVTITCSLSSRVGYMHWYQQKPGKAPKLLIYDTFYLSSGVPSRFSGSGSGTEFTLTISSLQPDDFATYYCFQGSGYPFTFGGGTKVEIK
0
